- Tested on: MCF-10A cells
- PROCEDURE_SUMMARY: MTT assay
- Assay type: cell-based, human
- CONDITION: time point not specified (24 and 48 h), read-out: IC50 towards MCF-10A cells
PROPERTY_MEASURED: IC50

[Q] Consider the compound O=C1CC(N2C(=O)C(=CC(Cl)=Cc3ccc([N+](=O)[O-])cc3)SC2=S)C(=O)N1c1ccc(Br)cc1 (centres unmarked) and give its measured IC50.
[A] > 64.6 µM

[Q] Consider the compound O=C1CC(N2C(=O)C(=CC(Cl)=Cc3ccc([N+](=O)[O-])cc3)SC2=S)C(=O)N1c1ccc(Cl)cc1 (centres unmarked) and give its measured IC50.
[A] > 64.6 µM
